tested on: L1210 leukemia ip in BDF1 mice, survival T/C; assay: NCI In Vivo Anticancer Drug Screen. Data for tumor model L1210 Leukemia (intraperitoneal) in B6D2F1 (BDF1) mice; settings: endpoint: mean survival time; dose: 100.0 mg/kg/injection; schedule: Q04DX002 (ip); vehicle: Klucel (hydroxypropylcellulose) (HPC); higher = longer survival
Inconclusive results and toxic doses are left out.
Each record here notes measured T/C.

COc1cccc(NC(=S)NN(C)C)c1
94 % of control
Cc1cccc(C)c1OC(=O)Nc1ccccc1Cl
95 % of control
CCCN(CCC#N)C(=S)Nc1ccc(C)c(C)c1
94 % of control
O=C(Nc1cccc2ccccc12)c1cccc([N+](=O)[O-])c1C(=O)O
99 % of control
Cc1nn(C)c(Cl)c1[N+](=O)[O-]
102 % of control
O=S(=O)(c1ccccc1)C1C2CCC(O2)C1S(=O)(=O)c1ccccc1 (centres undefined)
103 % of control

Ask | Kindly indicate its recorded T/C. Item: O=C1C2C3CCC(C4OCCO4)(O3)C2C(=O)N1Cc1ccccc1 (centres undefined)
Reply | 107 % of control

Ask | Dear colleague, please send me the reported T/C for CSc1ccc(NC(=O)C(Cl)Cl)cc1 when you can.
Reply | 97 % of control

Ask | Return the recorded T/C value; entry: Clc1c2ccccc2cc2ccccc12
Reply | 92 % of control

Ask | For the compound Nc1c([N+](=O)[O-])cc(Cl)c(Cl)c1F , report T/C.
Reply | 101 % of control

Ask | Supply measured T/C of N#CCc1ccc2[nH]c3c(c2c1)CCCC3 in your reply.
Reply | 106 % of control

Ask | Note T/C for the compound shown: COc1ccc(OC)c2[nH]c(-c3ccccc3)cc12
Reply | 96 % of control

Ask | Tell us which T/C value is on record for C=CC1=C(C)C(=O)N/C1=C\c1[nH]c(Cc2[nH]c(/C=C3/NC(=O)C(C(C)SC(C)=O)=C3C)cc2CCC(=O)O)c(CCC(=O)O)c1C (centres undefined)
Reply | 101 % of control

---

This listing pairs molecules with measured T/C.
system: L1210 leukemia ip in BDF1 mice, survival T/C; test: NCI In Vivo Anticancer Drug Screen. Data for tumor model L1210 Leukemia (intraperitoneal) in B6D2F1 (BDF1) mice; details: endpoint: mean survival time; dose: 50.0 mg/kg/injection; schedule: Q01DX009 (ip); vehicle: Klucel (hydroxypropylcellulose) (HPC); higher = longer survival
Inconclusive results and toxic doses are left out.

Ask | Give the observed T/C of C=CCSc1nccnc1C for L1210 leukemia ip in BDF1 mice, survival T/C.
Reply | 100 % of control

Ask | Look up and report T/C, with L1210 leukemia ip in BDF1 mice, survival T/C as system, for COc1ccc(C2=NNc3n[nH]c(=S)n3N2)cc1OC
Reply | 96 % of control

---

Item-by-item account of T/C
Test system: L1210 leukemia ip in BDF1 mice, survival T/C
Assay: NCI In Vivo Anticancer Drug Screen. Data for tumor model L1210 Leukemia (intraperitoneal) in B6D2F1 (BDF1) mice
Conditions: endpoint: mean survival time; dose: 400.0 mg/kg/injection; schedule: Q01DX001 (ip); vehicle: saline; higher = longer survival
Procedure: The antitumor activity of compounds was measured in mice bearing transplantable tumors. Survival or tumor size were measured and the results are expressed as the measurement made in the treated group (T) divided by the measurement made in the vehicle treated control group (C). The tumor model used in this assay is L1210 Leukemia (intraperitoneal) in B6D2F1 (BDF1) mice
Inconclusive results and toxic doses are left out.

Below, each entry is followed by its recorded T/C result.
Nc1nc(N)c(N=C/C=C\c2ccc([N+](=O)[O-])cc2)c(-c2ccccc2)n1
103 % of control
CC1(C)N=C(N)N=C(N)N1c1cccc(OCCOc2ccc(NC(=O)CBr)cc2)c1
112 % of control

Ask | For L1210 leukemia ip in BDF1 mice, survival T/C, give T/C of the listed compound: Cc1ccccc1-n1nnc2ccccc2c1=O
Reply | 89 % of control
